# credit: patent EP4570800A1

- system_tested: KRAS G12C::SOS1 (Homo sapiens, UniProt Q07889)
- Sequence (Q07889 564-1049 limits assumed): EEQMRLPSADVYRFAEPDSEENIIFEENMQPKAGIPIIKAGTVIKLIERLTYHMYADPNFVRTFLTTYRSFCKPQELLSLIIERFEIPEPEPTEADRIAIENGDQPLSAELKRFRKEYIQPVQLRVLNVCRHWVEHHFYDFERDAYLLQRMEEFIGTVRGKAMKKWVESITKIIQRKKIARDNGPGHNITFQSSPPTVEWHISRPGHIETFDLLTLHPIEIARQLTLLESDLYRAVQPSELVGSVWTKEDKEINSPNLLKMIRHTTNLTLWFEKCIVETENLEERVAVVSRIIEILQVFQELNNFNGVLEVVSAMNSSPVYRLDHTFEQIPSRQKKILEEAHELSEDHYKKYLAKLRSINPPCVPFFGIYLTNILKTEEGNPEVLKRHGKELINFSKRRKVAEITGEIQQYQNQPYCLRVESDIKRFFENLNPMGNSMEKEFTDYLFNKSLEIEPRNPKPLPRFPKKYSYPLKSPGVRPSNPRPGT
- experiment_description: Inhibition of KRAS G12C::SOS1 binding (anti-6his-Tb / anti-GST-XL665 fluorescence ratio)
- measurement_parameters: GST-KRAS G12C and His-SOS1
parameter: IC50
Kindly write the number and append the unit.

What measured IC50 goes with "Cc1nc(N[C@H](C)c2cccc(S(F)(F)(F)(F)F)c2)c2cn(C3(CF)CC3)c(=O)cc2n1" ?
3.94 nM
